Molecular target: Muscarinic acetylcholine receptor M4 (Homo sapiens) (UniProt P08173)
Sequence (whole entry): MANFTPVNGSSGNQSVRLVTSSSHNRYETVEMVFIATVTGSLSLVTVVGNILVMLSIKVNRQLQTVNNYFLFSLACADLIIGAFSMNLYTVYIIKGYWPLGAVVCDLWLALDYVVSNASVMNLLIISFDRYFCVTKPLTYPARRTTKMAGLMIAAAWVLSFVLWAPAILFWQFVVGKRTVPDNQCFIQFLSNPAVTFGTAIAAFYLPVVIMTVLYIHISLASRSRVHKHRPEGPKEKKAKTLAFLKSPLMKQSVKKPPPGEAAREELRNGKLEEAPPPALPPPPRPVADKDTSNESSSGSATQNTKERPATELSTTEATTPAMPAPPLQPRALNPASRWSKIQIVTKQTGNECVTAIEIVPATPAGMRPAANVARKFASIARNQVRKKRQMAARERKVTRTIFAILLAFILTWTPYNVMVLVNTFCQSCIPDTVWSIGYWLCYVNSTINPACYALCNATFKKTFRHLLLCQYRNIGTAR
Assay: Displacement of 3[H]-NMS from human M4 mAChR expressed in Flp-In-CHO cells assessed as binding constant incubated for 6 hrs by microbeta2 plate reader assay
Type: cell-based
Settings: filed as positive allosteric modulator
Listing of recorded pKb by entry.
Lab note: jot down the number only; don't add units.

Worked set:
item_smiles=Cc1ccc(-c2cnn(CC3CCCC3)c2)c(-c2ccc(N)c([N+](=O)[O-])c2)n1 study_system="Muscarinic acetylcholine receptor M4 (Homo sapiens) (UniProt P08173)" property_name=pKb measured_number=4.75
item_smiles=Cc1ccc(-c2cnn(CC3CCCCC3)c2)c(-c2ccc3c(c2)C(=O)N(C)C3)n1 study_system="Muscarinic acetylcholine receptor M4 (Homo sapiens) (UniProt P08173)" property_name=pKb measured_number=6.11
item_smiles=CN1Cc2ccc(-c3ncccc3-c3cnn(CC4CCCC4)c3)cc2C1=O study_system="Muscarinic acetylcholine receptor M4 (Homo sapiens) (UniProt P08173)" property_name=pKb measured_number=5.33

Proceeding to the next compound to report its pKb.
Ask | What pKb appears in the records for this compound with Muscarinic acetylcholine receptor M4 (Homo sapiens) (UniProt P08173)? Cc1ccc(-c2cnn(CC3CCCC3)c2)c(-c2cccc(C(=O)N(C)C)c2)n1
Reply | 4.49
